Target: T1, human GIP receptor (human, UniProt P48546 22-466)
T1 sequence (looked up): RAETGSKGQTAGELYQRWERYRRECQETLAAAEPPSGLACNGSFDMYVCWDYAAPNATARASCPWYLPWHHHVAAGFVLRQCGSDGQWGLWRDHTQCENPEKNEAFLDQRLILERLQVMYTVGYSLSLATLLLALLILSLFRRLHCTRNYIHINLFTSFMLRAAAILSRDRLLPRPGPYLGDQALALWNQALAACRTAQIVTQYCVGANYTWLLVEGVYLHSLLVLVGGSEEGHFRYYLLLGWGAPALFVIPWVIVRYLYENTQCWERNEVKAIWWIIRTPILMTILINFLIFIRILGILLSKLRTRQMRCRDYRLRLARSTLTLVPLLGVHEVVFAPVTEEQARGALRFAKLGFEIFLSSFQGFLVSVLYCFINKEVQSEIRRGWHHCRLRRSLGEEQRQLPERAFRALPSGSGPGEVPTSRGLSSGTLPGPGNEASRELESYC
Assay: cell-based or functional assay
*1 amine or outer side, *2 acyl side, *3 side chain or, on linkers, in order; H or OH if unused. Where no end group is shown, it is not given here. Side-chain parts run from the residue outwards. [ ]: non-standard residue; d: D form. The star is where a group is joined. C18 diacid = O=C(O)CCCCCCCCCCCCCCCCC(=O)*; C16 diacid = O=C(O)CCCCCCCCCCCCCCC(=O)*; γGlu = O=C(O)[C@H](CCC(=O)[*:2])N[*:1]; Glutaryl = O=C(CCCC(=O)[*:2])[*:1]; Nle = CCCC[C@H](N)C(=O)O; PEG = not defined here; AEEA = NCCOCCOCC(=O)O; Aib = CC(C)(N)C(=O)O
The following binders are listed with their measured cAMP antagonism values.
All answers are understood in nM, so give the number only.

Check out these entries, answers already filled in.
Inquiry: # return recorded cAMP antagonism for input TFISDYK([PEG-PEG-γGlu-C18 diacid])IAMDKIHQQDFVNWLLAGGPSSGAPPPS (not fully specified (C-terminus); reading uncertain) [AT602]
Reply text: 35.5

Inquiry: Name the recorded cAMP antagonism of the item EGTFISDYSIAMDKIK([AEEA-AEEA-γGlu-C18 diacid])QQDFVNWLLAQKGPSSGAPPPS [AT433] in your answer.
Reply text: 7.94

Inquiry: Give a short answer stating reported cAMP antagonism for EGTFISDYSI[Aib][Nle]DKIK(C16 diacid)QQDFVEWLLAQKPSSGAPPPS-OH [AT667] .
Reply text: 0.736

Inquiry: Please report cAMP antagonism for the following binder: EGTFISDYSIAMDKIK([AEEA-AEEA-γGlu-C18 diacid])QQDFVNWLLAQKGPSSGAPPPS [AT589]
Reply text: 5.84

Inquiry: Specify reported cAMP antagonism for the binder shown: EGTFISDYSIAMDKIK(C18)QQDFVNWLLAQKPSSGAPPPS-OH [AT628]
Reply text: 58.4

Inquiry: Identify cAMP antagonism associated with the binder Glutaryl-GTFISDYSIA[Nle]DKIK(C16 diacid)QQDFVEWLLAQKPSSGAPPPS-OH [AT700]
Reply text: 0.708

Here is the next item to consider.
Inquiry: Identify the reported cAMP antagonism for the following entry. EGTFISDYSIALDKIKQQDFVNWLLAQKPSSGAPPPS (Nle at 14; K18: C16-diacid; C-term COOH) [AT619]
Reply text: 2.19
